# assay-name: Compound was tested for its solubility in DMSO/H2O in a ratio of (1:9)
# Format: ADME
# setup-conditions: DMSO/H2O (1:9); read-out: S
measured-endpoint: solubility (µg/mL)
One number for each entry, in µg/mL.

So for `Cc1c(O)c(=O)ccn1CCNCc1cc(C(C)(C)C)c(O)c(C(C)(C)C)c1` , the logged solubility turned out to be 10000

###

# assay-name: Compound was tested for its solubility in water
# Format: ADME
# setup-conditions: read-out: S
For each of the molecules below, state its solubility.

Below, 5 molecules whose answers are already recorded.
Cc1c(O)c(=O)ccn1CCOCCOCCOCCOCCOCCCc1cc(C(C)(C)C)c(O)c(C(C)(C)C)c1	< 100 µg/mL
Cc1c(C)c2c(c(C)c1OC(=O)C(N)C(C)C)CC(CCn1ccc(=O)c(O)c1C)O2 (centres undefined)	> 20000 µg/mL
CC(=O)Oc1c(C)n(CCCc2cc(C(C)(C)C)c(O)c(C(C)(C)C)c2)ccc1=O	< 100 µg/mL
Cc1c(C)c2c(c(C)c1O)CC(CCn1ccc(=O)c(O)c1C)O2 (centres undefined)	< 100 µg/mL
Cc1c(O)c(=O)ccn1CCOCCOCCOCCOCCCc1cc(C(C)(C)C)c(O)c(C(C)(C)C)c1	< 100 µg/mL

Dear colleague, could you please provide solubility for the molecules listed below?
1. Cc1c(C)c2c(c(C)c1OC(=O)CCCN)CC(CCn1ccc(=O)c(O)c1C)O2 (centres undefined)
2. Cc1c(C)c2c(c(C)c1OC(=O)CN(C)C)CC(CCn1ccc(=O)c(O)c1C)O2 (centres undefined)
3. Cc1c(C)c2c(c(C)c1O)CCC(C)(CNCCCCn1ccc(=O)c(O)c1C)O2 (centres undefined)
4. Cc1c(C)c2c(c(C)c1OC(=O)CCN)CC(CCn1ccc(=O)c(O)c1C)O2 (centres undefined)

10000 µg/mL
> 20000 µg/mL
< 100 µg/mL
10000 µg/mL
